Reported values of Activity in antigenic peptide prepulse assay, E^d (baseline = 1.00) for individual entries
# testSystem: murine E^d MHC class II allele (Mus musculus, UniProt P01904+P01915)
# Sequence (P01904 26-255): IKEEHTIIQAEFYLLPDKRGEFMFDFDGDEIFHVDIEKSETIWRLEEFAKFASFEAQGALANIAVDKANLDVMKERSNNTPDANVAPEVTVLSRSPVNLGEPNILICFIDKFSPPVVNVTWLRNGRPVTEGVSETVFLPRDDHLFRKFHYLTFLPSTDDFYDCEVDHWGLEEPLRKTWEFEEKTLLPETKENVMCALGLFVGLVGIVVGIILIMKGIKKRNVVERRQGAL
# Sequence (P01915 27-264 limits assumed): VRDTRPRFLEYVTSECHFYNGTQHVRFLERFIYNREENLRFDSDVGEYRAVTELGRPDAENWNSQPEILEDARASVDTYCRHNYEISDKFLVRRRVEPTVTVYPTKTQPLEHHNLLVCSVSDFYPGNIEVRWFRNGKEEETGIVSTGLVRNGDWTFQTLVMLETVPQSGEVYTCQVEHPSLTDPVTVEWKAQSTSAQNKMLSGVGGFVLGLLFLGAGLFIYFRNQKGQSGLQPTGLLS
# procedureSummary: antigenic peptide prepulse assay, E^d allele (fixed APC prepulsed with HEL106-116)
# Assay type: cell-based
# Set-up: The A20 and CH27 B cell lymphoma lines express H-2^d and H-2^k alleles, respectively; endogenous in cells; host or cells: A20 B cell lymphoma (mitomycin C-treated or paraformaldehyde-fixed)
# conditionNotes: Table 24; AE peptide 64 μM; prepulse 24 μM antigenic peptide; supernatant 1:4

>  <substance>
Ac-LRMKLPK-NH2 [AE114]

>  <measuredResult>
0.41

$$$$
>  <substance>
Ac-LR L KLPK-NH2 (Ac-LRLKLPK-NH2; not fully specified; printed as Ac-LR L KLPK-NH2) [AE206]

>  <measuredResult>
0.52

$$$$
>  <substance>
Ac-LRMK Y PK-NH2 (Ac-LRMKYPK-NH2; not fully specified; printed as Ac-LRMK Y PK-NH2) [AE235]

>  <measuredResult>
0.30

$$$$

Q. # Activity in antigenic peptide prepulse assay, E^d (baseline = 1.00) lookup, item Ac-LRLKYPk-NH2 [AE307]
A. 0.59

====

Reported values of Times Baseline Response, Ek for individual entries
# Tested on: murine E^k MHC class II allele
# procedureSummary: simultaneous assay, E^k allele (CH27 APC, TPc9.1 T hybridoma, THMCC82-103 or PGCC81-104)
# Type: cell-based
# conditionNotes: Table 3; AE peptide 64 μM; supernatant 1:4; values reduced relative to E^d by a factor of 10
Non-standard residues stand in square brackets, D forms with d. Cit = NC(=O)NCCC[C@H](N)C(=O)O; Orn = NCCC[C@H](N)C(=O)O
Reply with the value as a number alone.

>  <substance>
Ac-F RMKLPK-NH2 [AE189]

>  <Times Baseline Response, Ek>
18.2

$$$$

Q. # Times Baseline Response, Ek lookup, item Ac-D RMKLPK-NH2 [AE185]
A. 0.9

Q. # Times Baseline Response, Ek lookup, item Ac-YRMKLPK-NH2 [AE113]
A. 24.9

Q. # Times Baseline Response, Ek lookup, item Ac-E RMKLPK-NH2 [AE186]
A. 1.3

Q. # Times Baseline Response, Ek lookup, item Ac-H RMKLPK-NH2 [AE183]
A. 17.3

Q. # Times Baseline Response, Ek lookup, item Ac-HArg RMKLPK-NH2 [AE182]
A. 26.5

Q. # Times Baseline Response, Ek lookup, item Ac-LRMKLPK-NH2 [AE114]
A. 26.9

Q. # Times Baseline Response, Ek lookup, item Ac-Q RMKLPK-NH2 [AE188]
A. 7.7

Q. # Times Baseline Response, Ek lookup, item Ac-N RMKLPK-NH2 [AE187]
A. 9.5

Q. # Times Baseline Response, Ek lookup, item Ac-[Cit]RMKLPK-NH2 [AE181]
A. 11.5

Q. # Times Baseline Response, Ek lookup, item Ac-K RMKLPK-NH2 [AE184]
A. 11.8

Q. # Times Baseline Response, Ek lookup, item Ac-[Orn]RMKLPK-NH2 [AE180]
A. 10.8

Q. # Times Baseline Response, Ek lookup, item Ac-M RMKLPK-NH2 [AE190]
A. 15.2

Cited source: patent US6835382B2
